These entries and their values trace back to patent US20250163167A1.

Hi there, I'd appreciate the recorded Surface Activity for every entry that follows.
Target: T1, hIL10Ra-his (Sino Biological, Catalog#10419) (human, UniProt Q13651 22-235)
T1 construct: Bought; also called Sino Biological cat#10419-H08H; not shown: C-terminal poly-His tag
T1 sequence: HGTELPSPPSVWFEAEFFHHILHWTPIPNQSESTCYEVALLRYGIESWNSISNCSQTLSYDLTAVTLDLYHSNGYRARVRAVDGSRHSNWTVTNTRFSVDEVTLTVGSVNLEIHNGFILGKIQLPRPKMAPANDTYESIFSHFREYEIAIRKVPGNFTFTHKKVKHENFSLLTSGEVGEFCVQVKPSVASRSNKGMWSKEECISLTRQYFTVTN
Test: SPR; ratio of experimental to calculated Rmax
All answers are understood in %, so give the number only.

For reference, reported Surface Activity for hIL-10Ra_VHH6 Mono-Fc (Fc fusion, Mono-Fc VHH captured on Protein A; not shown: mono-Fc part) QVQLQESGGGSVQAGGSLRLSCAASRFTYSSYCMGWFRQAPGKEREGVASIDSDGSTSYTDSVKGRFTISKDNAKNTLYLQMNSLKPEDTAMYYCALDLMSTVVPGFCGFLLSAGMDYWGKGTQVTVSS stands at 83

For reference, reported Surface Activity for hIL-10Ra_VHH12 Mono-Fc (Fc fusion, Mono-Fc VHH captured on Protein A; not shown: mono-Fc part) QVQLQESGGGSVQAGGSLRLSCTVSGYTYSSNCMGWFRQAPGKEREGVATIYTGGGNTYYADSVKGRFTISQDNAKNTVYLQMNNLKPEDTAMYYCAAEPLSRVYGGSCPTPTFDYWGQGTQVTVSS stands at 73

For reference, reported Surface Activity for hIL-10Ra_VHH17 Mono-Fc (Fc fusion, Mono-Fc VHH captured on Protein A; not shown: mono-Fc part) QVQLQESGGGSVQAGGSLRLSCAASGYSNCSYDMTWYRQAPGKEREFVSAIHSDGSTRYADSVKGRFFISQDNAKNTVYLQMNSLKPEDTAMYYCKTDPLHCRAHGGSWYSVRANYWGQGTQVTVSS stands at 35

For reference, reported Surface Activity for hIL-10Ra_VHH8 Mono-Fc (Fc fusion, Mono-Fc VHH captured on Protein A; not shown: mono-Fc part) QVQLQESGGGSVQAGGSLRLSCAASGYTYSMYCMGWFRQAPGKEREGVAQINSDGSTSYADSVKGRFTISKDNAKNTLYLQMNSLKPEDTAMYYCAADSRVYGGSWYERLCGPYTYEYNYWGQGTQVTVSS stands at 57
